Molecular target: HCV NS3/4A protease complex (Hepatitis C virus genotype 1a, UniProt P27958, C1454S/C1711G)
Construct: recombinant HCV NS3/4A protease complex (amino acids 1027 to 1711); inferred from the pET21b vector and Ni-NTA purification; made in house; host or cells: Escherichia coli BL21 (DE3)
Sequence (P27958 1027-1711 C1454S/C1711G, one chain of several): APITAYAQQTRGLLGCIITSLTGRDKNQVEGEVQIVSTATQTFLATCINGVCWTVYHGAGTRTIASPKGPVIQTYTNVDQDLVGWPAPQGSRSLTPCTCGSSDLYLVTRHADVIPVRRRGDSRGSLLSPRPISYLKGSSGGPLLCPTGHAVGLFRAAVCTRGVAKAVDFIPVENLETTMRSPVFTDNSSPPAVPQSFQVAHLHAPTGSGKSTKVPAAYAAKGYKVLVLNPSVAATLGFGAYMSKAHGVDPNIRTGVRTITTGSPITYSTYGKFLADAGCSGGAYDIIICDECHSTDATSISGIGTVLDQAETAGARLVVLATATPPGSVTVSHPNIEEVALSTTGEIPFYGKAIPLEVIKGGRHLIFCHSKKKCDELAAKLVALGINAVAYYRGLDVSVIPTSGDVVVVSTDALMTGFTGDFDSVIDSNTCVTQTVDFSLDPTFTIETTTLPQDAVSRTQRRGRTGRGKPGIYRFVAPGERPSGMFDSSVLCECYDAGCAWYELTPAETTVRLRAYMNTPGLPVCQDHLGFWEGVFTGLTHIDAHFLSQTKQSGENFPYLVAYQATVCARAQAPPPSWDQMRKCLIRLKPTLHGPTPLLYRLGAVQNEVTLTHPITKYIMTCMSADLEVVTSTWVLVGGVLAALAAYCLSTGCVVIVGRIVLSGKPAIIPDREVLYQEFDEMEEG
Test: FRET peptide assay to monitor HCV NS3/4A proteolytic activity
Assay type: biochemical
ENDPOINT: IC50

## Task May I ask what IC50 has been recorded for CO[C@@]12C[C@@H](C(=O)N[C@]3(C(=O)NS(=O)(=O)C4CC4)C[C@H]3C3CC3)N(C1)C(=O)[C@H](C(C)(C)C)NC(=O)OCCCCCCc1ccc3ccc2cc3c1 [Example 31] ?
## Result 1 to 10 nM

====

Molecular target: HCV NS3/4A protease complex (Hepatitis C virus genotype 1a, UniProt P27958, C1454S/C1711G)
Construct: recombinant HCV NS3/4A protease complex (amino acids 1027 to 1711); inferred from the pET21b vector and Ni-NTA purification; made in house; host or cells: Escherichia coli BL21 (DE3)
Experiment: FRET peptide assay to monitor HCV NS3/4A proteolytic activity
Format: biochemical
Settings: HCV NS3/4A protease complex; strain not stated; class symbols; read-out: IC50
ENDPOINT: IC50

A selection of reference data follows.
## Task May I ask what IC50 has been recorded for COc1cc2ccc3cc2cc1CCCC(C)(C)CCOC(=O)N[C@@H](C(C)(C)C)C(=O)N1C[C@@]3(OC)C[C@H]1C(=O)N[C@]1(C(=O)NS(=O)(=O)C2CC2)C[C@H]1C(F)F [Example 18] ?
## Result 1 to 10 nM

## Task May I ask what IC50 has been recorded for C=C[C@@H]1C[C@]1(NC(=O)[C@@H]1C[C@]2(OC)CN1C(=O)[C@H](C(C)(C)C)NC(=O)OCCC/C=C\c1cc3cc2ccc3cc1OC)C(=O)NS(=O)(=O)C1CC1 [Example 4] ?
## Result 1 to 10 nM

## Task May I ask what IC50 has been recorded for COc1cc2ccc3cc2cc1CCCCCCCOC(=O)N[C@@H](C(C)(C)C)C(=O)N1C[C@@]3(OC)C[C@H]1C(=O)N[C@]1(C(=O)NS(=O)(=O)C2CC2)C[C@H]1C1CC1 [Example 21] ?
## Result 21 to 3200 nM

Look up IC50 for the entries below, preserving their order.
1. C=C[C@@H]1C[C@]1(NC(=O)[C@@H]1C[C@]2(OC)CN1C(=O)[C@H](C(C)(C)C)NC(=O)OCCCCCCCCc1cc3cc2ccc3cc1OC)C(=O)NS(=O)(=O)C1CC1 [Example 23]
2. C=C[C@@H]1C[C@]1(NC(=O)[C@@H]1C[C@]2(OC)CN1C(=O)[C@H](C(C)(C)C)NC(=O)OCCCCc1cc3cc2ccc3cc1OC)C(=O)NS(=O)(=O)C1CC1 [Example 3]

## Result
1: 1 to 10 nM; 2: 1 to 10 nM

====

Give measured EC50 for each item. Keep answers brief.
System: HCV replicon in HUH-7 cells
Assay: HCV replicon assay (FRET, confirmed in the luciferase reporter assay)
Assay type: cell-based
Conditions: Hepatitis C virus, 96 h, 4 days, class symbols

A selection of reference data follows.
## Task May I ask what EC50 has been recorded for COc1cc2ccc3cc2cc1CCCC(C)(C)COC(=O)N[C@@H](C(C)(C)C)C(=O)N1C[C@@]3(OC)C[C@H]1C(=O)N[C@]1(C(=O)NS(=O)(=O)C2CC2)C[C@H]1C1CC1 [Example 10] ?
## Result 21 to 150 nM

## Task May I ask what EC50 has been recorded for CC[C@@H]1C[C@]1(NC(=O)[C@@H]1C[C@]2(OC)CN1C(=O)[C@H](C(C)(C)C)NC(=O)OCC(C)(C)CCCCc1cc3cc2ccc3cc1OC)C(=O)NS(=O)(=O)C1CC1 [Example 16] ?
## Result 21 to 150 nM

## Task May I ask what EC50 has been recorded for C=C[C@@H]1C[C@]1(NC(=O)[C@@H]1C[C@]2(OC)CN1C(=O)[C@H](C(C)(C)C)NC(=O)OCC(C)(C)CCCc1cc3cc2ccc3cc1OC)C(=O)NS(=O)(=O)C1CC1 [Example 9] ?
## Result 1 to 10 nM

## Task May I ask what EC50 has been recorded for C=C[C@@H]1C[C@]1(NC(=O)[C@@H]1C[C@]2(OC)CN1C(=O)[C@H](C(C)(C)C)NC(=O)OCC(C)(C)CCCCc1cc3cc2ccc3cc1OC)C(=O)NS(=O)(=O)C1CC1 [Example 14] ?
## Result 1 to 10 nM

Here is another molecule to look at.
## Task May I ask what EC50 has been recorded for COc1cc2ccc3cc2cc1CCCCC(C)(C)COC(=O)N[C@@H](C(C)(C)C)C(=O)N1C[C@@]3(OC)C[C@H]1C(=O)N[C@]1(C(=O)NS(=O)(=O)C2CC2)C[C@H]1C1CC1 [Example 15] ?
## Result 1 to 10 nM

====

Give measured pIC50 for each item. Keep answers brief.
Biological target: HCV NS3/4A protease complex (Hepatitis C virus genotype 1a, UniProt P27958, C1454S/C1711G)
Construct: recombinant HCV NS3/4A protease complex (amino acids 1027 to 1711); inferred from the pET21b vector and Ni-NTA purification; made in house; host or cells: Escherichia coli BL21 (DE3)
Assay: FRET peptide assay to monitor HCV NS3/4A proteolytic activity
Assay type: biochemical
Details: HCV NS3/4A protease complex; strain not stated; class symbols; read-out: IC50
pIC50: −log10 of the molar value.

A selection of reference data follows.
## Task May I ask what pIC50 has been recorded for COc1cc2ccc3cc2cc1CCCCCCOC(=O)N[C@@H](C(C)(C)C)C(=O)N1C[C@@]3(O)C[C@H]1C(=O)N[C@]1(C(=O)NS(=O)(=O)C2CC2)C[C@H]1C1CC1 [Example 26] ?
## Result 8.00 to 9.00

## Task May I ask what pIC50 has been recorded for COc1cc2ccc3cc2cc1CCCCCCCCOC(=O)N[C@@H](C(C)(C)C)C(=O)N1C[C@@]3(OC)C[C@H]1C(=O)N[C@]1(C(=O)NS(=O)(=O)C2CC2)C[C@H]1C1CC1 [Example 22] ?
## Result 8.00 to 9.00

## Task May I ask what pIC50 has been recorded for COc1ccc2ccc3cc2c1CCCCOC(=O)N[C@@H](C(C)(C)C)C(=O)N1C[C@@]3(OC)C[C@H]1C(=O)N[C@]1(C(=O)NS(=O)(=O)C2CC2)C[C@H]1C1CC1 [Example 37] ?
## Result 5.49 to 7.68

Look up pIC50 for the entries below, preserving their order.
1. COc1cc2ccc3cc2cc1CCCCC(C)(C)COC(=O)N[C@@H](C(C)(C)C)C(=O)N1C[C@@]3(OC)C[C@H]1C(=O)N[C@]1(C(=O)NS(=O)(=O)C2CC2)C[C@H]1C1CC1 [Example 15]
2. COc1cc2ccc3cc2cc1CCCC(C)(C)COC(=O)N[C@@H](C(C)(C)C)C(=O)N1C[C@@]3(OC)C[C@H]1C(=O)N[C@]1(C(=O)NS(=O)(=O)C2CC2)C[C@H]1C1CC1 [Example 10]
3. COc1cc2ccc3cc2cc1CCCCCCCC(=O)N[C@@H](C(C)(C)C)C(=O)N1C[C@@]3(OC)C[C@H]1C(=O)N[C@]1(C(=O)NS(=O)(=O)C2CC2)C[C@H]1C1CC1 [Example 41]
4. COc1cc2ccc3cc2cc1CCCC(C)(C)COC(=O)N[C@@H](C(C)(C)C)C(=O)N1C[C@@]3(OC)C[C@H]1C(=O)N[C@]1(C(=O)NS(=O)(=O)C2CC2)C[C@H]1C(F)F [Example 11]
5. C=C[C@@H]1C[C@]1(NC(=O)[C@@H]1C[C@]2(OC)CN1C(=O)[C@H](C(C)(C)C)NC(=O)OCCC(C)(C)CCCc1cc3cc2ccc3cc1OC)C(=O)NS(=O)(=O)C1CC1 [Example 17]
6. COc1cc2ccc3cc2cc1CCCCCOC(=O)N[C@@H](C(C)(C)C)C(=O)N1C[C@@]3(OC)C[C@H]1C(=O)N[C@]1(C(=O)NS(=O)(=O)C2CC2)C[C@H]1C1CC1 [Example 6]

## Result
1: 8.00 to 9.00; 2: 7.92 to 7.96; 3: 8.00 to 9.00; 4: 8.00 to 9.00; 5: 8.00 to 9.00; 6: 8.00 to 9.00

Look up pIC50 for the entries below, preserving their order.
1. COCO[C@@]12C[C@@H](C(=O)N[C@]3(C(=O)NS(=O)(=O)C4CC4)C[C@H]3C3CC3)N(C1)C(=O)[C@H](C(C)(C)C)NC(=O)OCCC(C)(C)CCCc1cc3cc2ccc3cc1OC [Example 28]
2. C=C[C@@H]1C[C@]1(NC(=O)[C@@H]1C[C@]2(OC)CN1C(=O)[C@H](C(C)(C)C)NC(=O)OCCCCCCc1cc3cc2ccc3cc1N(C)C)C(=O)NS(=O)(=O)C1CC1 [Example 29]
3. C=C[C@@H]1C[C@]1(NC(=O)[C@@H]1C[C@]2(OC)CN1C(=O)[C@H](C(C)(C)C)NC(=O)OCC(C)(C)CCCc1cc3cc2ccc3cc1OC)C(=O)NS(=O)(=O)C1CC1 [Example 9]
4. COc1cc2ccc3cc2cc1CCCCCCOC(=O)N[C@@H](C(C)(C)C)C(=O)N1C[C@@]3(OC)C[C@H]1C(=O)N[C@]1(C(=O)NS(=O)(=O)C2CC2)C[C@H]1C1CC1 [Example 13]
5. C=C[C@@H]1C[C@]1(NC(=O)[C@@H]1C[C@]2(OC)CN1C(=O)[C@H](C(C)(C)C)NC(=O)OCC(C)(C)C/C=C\c1cc3cc2ccc3cc1OC)C(=O)NS(=O)(=O)C1CC1 [Example 8]

## Result
["8.00 to 9.00", "8.00 to 9.00", "8.00 to 9.00", "8.00 to 9.00", "8.00 to 9.00"]
